System: Colon cancer organoid
Assay: Optimized Dual-Glo assay to identify co-culture induced drug vulnerabilities using donated chemical probes and chemogenomics kinase set in O06 CRC organoid and F06 CAF mono and co-culture. […] Cell viability is reported both mono and co-culture models.
Format: functional, Homo sapiens
Set-up: dose or concentration left out as unconfirmed
Conditions: Culture type Co-Culture; Transduced with Renilla-dsRed lentivirus
// reported Cell Viability for each item listed
Returns: string containing the number followed by the unit.

Chemical String: N#CC1(c2ccccn2)CCN(Cc2cc(C(=O)N3CCCC3)c(=O)n3ccccc23)CC1
System Name: Colon cancer organoid
Cell Viability: 72.6928%

Chemical String: COc1ccccc1-c1cc(N2CCN(C(=O)OC(C)(C)C)CC2)c(N)nn1
System Name: Colon cancer organoid
Cell Viability: 102.712%

Chemical String: C=CC(=O)Nc1cccc(C(=O)Nc2ccc(Nc3cc(-c4[nH]c(SC)nc4C)ccn3)cc2)c1
System Name: Colon cancer organoid
Cell Viability: 89.5907%

Chemical String: Cn1cnc2c(F)c(Nc3ccc(Br)cc3Cl)c(C(=O)NOCCO)cc21
System Name: Colon cancer organoid
Cell Viability: 90.3962%

Chemical String: Cc1c(C(=O)O)cc(-c2ccc(C3CCNCC3)cc2)c2ccc(-c3ccc(C(F)(F)F)cc3)cc12.Cl
System Name: Colon cancer organoid
Cell Viability: 93.9723%

Which Cell Viability is reported for this compound? CCOc1ccn(-c2ccc(F)cc2)c(=O)c1C(=O)Nc1ccc(Oc2ccnc(N)c2Cl)c(F)c1 94.0587%

Which Cell Viability is reported for this compound? Cc1ccc(-c2cnc([C@@]3(O)CC[C@H](C(=O)O)C(C)(C)C3)s2)cc1Nc1cccc(C(F)(F)F)n1 158.333%

Which Cell Viability is reported for this compound? CCC(=O)N[C@H]1CC[C@@H](C(=O)N(C)c2ccc(-c3nc4ccccc4o3)cc2)C1 448.988%

----------
System: Colon cancer organoid
Assay: Optimized Dual-Glo assay to identify co-culture induced drug vulnerabilities using donated chemical probes and chemogenomics kinase set in O06 CRC organoid and F06 CAF mono and co-culture. […] Cell viability is reported both mono and co-culture models.
Type: functional, Homo sapiens
Set-up: dose or concentration left out as unconfirmed
Details: Culture type Co-Culture; Transduced with Renilla-dsRed lentivirus
Assay Endpoint: Cell Viability (%)
Respond with the bare value in %.

Observe how each entry below is paired with its result.
Molecule: Cc1sc2c(c1C)C(c1ccc(Cl)cc1)=N[C@H](CC(=O)OC(C)(C)C)c1nnc(C)n1-2
Value: 109.974

Molecule: O=C1[C@H](Cc2ccc(O)cc2)N2C(=O)CCN(C(=O)NCc3ccccc3)[C@H]2CN1Cc1cccc2ccccc12
Value: 124.216

Molecule: Cc1cc2c(-c3ccco3)cnc(N[C@H]3CCN(C)C[C@@H]3C(=O)NC3CCCCC3)c2[nH]c1=O
Value: 153.556

Molecule: COc1ncc(F)cc1CNc1ccc(Cc2c[nH]c3ncc(C)cc23)c(F)n1
Value: 63.3822

Molecule: Cc1ccc2nc(CNCCCOc3ccccc3)cc(O)c2c1
Value: 156.395

Molecule: Cc1c(NC(=O)COc2ccc(Cl)cc2C(=O)c2cc(F)cc(C(F)(F)F)c2)ccc(C(=O)O)c1F
Value: 97.0984

Which Cell Viability is reported for this molecule? COc1c(OCCCN2CCOCC2)ccc2c1N=C(NC(=O)c1cnc(N)nc1)N1CCN=C21 40.0213

Which Cell Viability is reported for this molecule? CN1CCN(c2ccc(OC(F)(F)F)c(Nc3ncc4c(n3)-c3c(c(C(N)=O)nn3CCO)CC4)c2)CC1 160.245

Which Cell Viability is reported for this molecule? C[C@@H]1CCNC(=O)c2cc3ccc(C(=O)Nc4nc5ccccc5n4CCCN(C)C)cc3n21 63.6239

----------
// reported Cell Viability for each item listed
Test system: Colon cancer organoid
Assay: Optimized Dual-Glo assay to identify co-culture induced drug vulnerabilities using donated chemical probes and chemogenomics kinase set in O06 CRC organoid and F06 CAF mono and co-culture. […] Cell viability is reported both mono and co-culture models.
Assay type: functional, Homo sapiens
Set-up: dose or concentration left out as unconfirmed
Conditions: Culture type Mono-Culture; Transduced with Renilla-dsRed lentivirus
Respond with the bare value in %.

Chemical String: CN(C)C(=O)c1sc2nc(N3CCC(S(C)(=O)=O)CC3)cc(C(F)(F)F)c2c1N
Uom: %
Value: 97.708

Which Cell Viability is reported for this molecule? Cc1c(C(=O)O)cc(-c2ccc(C3CCNCC3)cc2)c2ccc(-c3ccc(C(F)(F)F)cc3)cc12.Cl 87.9203

Which Cell Viability is reported for this molecule? Cc1nc(C2CCN(C(=O)c3ccc(OC(F)(F)F)cc3N)CC2)c2ncc(N3CCN(C)CC3)cc2n1 110.093

Which Cell Viability is reported for this molecule? Cc1c(Oc2ccc(F)cc2)c(OC(C)C)nn1-c1ccc(C2CC2)cn1 103.472

----------
System: Colon cancer organoid
Experiment: Optimized Dual-Glo assay to identify co-culture induced drug vulnerabilities using donated chemical probes and chemogenomics kinase set in O06 CRC organoid and F06 CAF mono and co-culture. […] Cell viability is reported both mono and co-culture models.
Type: functional, Homo sapiens
Parameters: dose or concentration left out as unconfirmed
Details: Culture type Mono-Culture; Transduced with Renilla-dsRed lentivirus
// reported Cell Viability for each item listed
Respond with the bare value in %.

Observe how each entry below is paired with its result.
Compound: CC1=C(C#N)C(c2ccc3c(c2)c(NC(=O)c2ccccc2C)nn3C)C(C#N)=C(C)N1 [BAY-974]
System Name: Colon cancer organoid
Assay Endpoint: Cell Viability
Value: 95.4639
//
Compound: CN(C)C(=O)c1ccc(-c2cc(C(=O)N[C@@H]3CCc4ccccc43)no2)cc1O
System Name: Colon cancer organoid
Assay Endpoint: Cell Viability
Value: 134.315
//
Compound: N#CN1CC[C@H](C(=O)Nc2nc3c(s2)CN(C(=O)CN=[N+]=[N-])CC3)C1 [8RK64]
System Name: Colon cancer organoid
Assay Endpoint: Cell Viability
Value: 85.3904

Which Cell Viability is reported for this compound? Cc1cc(F)c(C(=O)Nc2cccc(-c3nncn3C(C)C)n2)cc1-n1cnc(C2CC2)c1 [SELONSERTIB] 92.1767

Which Cell Viability is reported for this compound? O=C(c1ccc(C(=O)N2CCC(N3CCCC3)CC2)c(Nc2ccccc2)c1)N1CCC(N2CCCC2)CC1 98.6037

Which Cell Viability is reported for this compound? C[C@@H]1CN(c2cc(-c3nn(C)c4ccc(OC5(C)CC5)cc34)ncn2)C[C@H](C)O1 [MLi-2-NC] 98.8275

Which Cell Viability is reported for this compound? CN(C)CC#Cc1ccc(OCCCc2sc(N3CCc4cccc(C(=O)Nc5nc6ccccc6s5)c4C3)nc2C(=O)O)c(F)c1 [A-1155463] 37.2528

Which Cell Viability is reported for this compound? COc1ccc(Cn2ccc3ccc(C(=O)NO)cc32)cc1 118.855

Which Cell Viability is reported for this compound? CNC(=O)Nc1ccc(-c2nc(N3CC4CCC(C3)O4)c3cnn(C4CCC5(CC4)OCCO5)c3n2)cc1 31.9288

----------
// reported Cell Viability for each item listed
Tested on: Colon cancer organoid
Test: Optimized Dual-Glo assay to identify co-culture induced drug vulnerabilities using donated chemical probes and chemogenomics kinase set in O06 CRC organoid and F06 CAF mono and co-culture. […] Cell viability is reported both mono and co-culture models.
Assay type: functional, Homo sapiens
Parameters: dose or concentration left out as unconfirmed
Settings: Culture type Co-Culture; Transduced with Renilla-dsRed lentivirus
Respond with the bare value in %.

Chemical String: C[C@H](NC(=O)Nc1cc2[nH]ncc2c(CO)n1)c1ccccn1
Cell Viability, %: 87.7291
//
Chemical String: CN(C)C(=O)Cn1cc(-c2nc(C3(c4ccc(-c5cnc(N)nc5)cc4)CC3)no2)cn1
Cell Viability, %: 116.335
//
Chemical String: CCOC(=O)Nc1cc(-c2ccc(C)c(NS(C)(=O)=O)c2)nn2c(C)nnc12
Cell Viability, %: 266.102
//
Chemical String: CC(=O)c1cc(-c2ccccc2OCC2CC2)c2ncccn12
Cell Viability, %: 181.775
//
Chemical String: Cc1c(NC(=O)c2cc(C(N)=O)nc3cc(F)ccc23)c(C(F)(F)F)nn1Cc1ccc(C#N)cc1
Cell Viability, %: 424.118
//
Chemical String: COc1cc(Nc2nc(C)cc(-c3cnn4nc(OC)ccc34)n2)cc(C(F)(F)F)c1
Cell Viability, %: 124.179
//
Chemical String: CC(=O)NCC(=O)N1[C@@H]2CC[C@H]1c1ccc(Nc3ncc(C(F)(F)F)c(NC4CCC4)n3)cc12
Cell Viability, %: 132.747
//
Chemical String: O=C(Nc1cccnn1)N1CC(C/C=C/c2cncc(Oc3ccc(C(F)(F)F)cn3)n2)C1
Cell Viability, %: 196.307

Consider the additional compound presented here.
Which Cell Viability is reported for this compound? CCC(=O)Nc1cccc(Oc2nc(Nc3ccc(N4CCN(C)CC4)cc3OC)ncc2Cl)c1 94.5997
